- System name: T1, cynomolgus CD200R1 with dual His-tags (cynomolgus, UniProt G7NZT0 25-266)
- T1 construct: Captured on the SPR chip by an anti-histidine antibody; also called CCD200R1-his; cCD200R1-his; not shown: dual His-tags
- T1 sequence: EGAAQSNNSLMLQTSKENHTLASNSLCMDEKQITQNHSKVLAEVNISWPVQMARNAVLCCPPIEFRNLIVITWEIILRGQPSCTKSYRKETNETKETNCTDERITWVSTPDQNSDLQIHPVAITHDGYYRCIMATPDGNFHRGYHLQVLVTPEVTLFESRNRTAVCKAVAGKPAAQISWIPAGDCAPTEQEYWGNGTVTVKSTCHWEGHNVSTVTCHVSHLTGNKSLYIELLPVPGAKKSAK
- Method: SPR (Biacore CM5), His-tagged antigen captured by anti-histidine antibody, antibody as analyte, 1:1 Langmuir fit
- Method: For the experiment, 30 μg/mL of an anti-histidine antibody was conjugated to a CM5 biacore chip via an amine bond while allowing to flow at 10 μl/min (10,000 RU). Then, 0.25 μg/mL of human or cynomolgus CD200R1 with dual His-tags was captured onto the completed chip for 60 seconds, and the binding ability of each antibody was analyzed. […] The resulting graphs were fitted using a 1:1 Langmuir binding kinetic model (FIG. 16), and the kinetics of each antibody were calculated.
Metric: koff
Write the quantity with the unit trailing the number.

>>> result("P001009v4 (antibody, V domains shown, P001009 with LC N31K (Kabat); also called P019001v4) VH: EVQLLESGGGLVQPGGSLRLSCAASGFTFSSYDMSWVRQAPGKGLEWVSWISHGGGSIYYADSVKGRFTISRDNSKNTLYLQMNSLRAEDTAVYYCARDAPAYSAPLFDYWGQGTLVTVSS VL: QSVLTQPPSASGTPGQRVTISCSGSSSNIGNKAVNWYQQLPGTAPKLLIYYDSNRPSGVPDRFSGSKSGTSASLAISGLRSEDEADYYCAAWDDSLSGYVFGGGTKLTVL")
"0.000305 s⁻¹"
>>> result("P001009 (IgG) (antibody, V domains shown, also called P001009 WT; P001009 wt) VH: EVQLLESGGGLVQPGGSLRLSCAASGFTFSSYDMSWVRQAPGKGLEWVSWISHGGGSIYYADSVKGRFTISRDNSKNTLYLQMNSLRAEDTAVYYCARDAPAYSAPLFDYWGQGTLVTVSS VL: QSVLTQPPSASGTPGQRVTISCSGSSSNIGNNAVNWYQQLPGTAPKLLIYYDSNRPSGVPDRFSGSKSGTSASLAISGLRSEDEADYYCAAWDDSLSGYVFGGGTKLTVL")
"0.0117 s⁻¹"
>>> result("P001009v2 (antibody, V domains shown, P001009 with LC S52K and D93R (Kabat); also called P019001v2) VH: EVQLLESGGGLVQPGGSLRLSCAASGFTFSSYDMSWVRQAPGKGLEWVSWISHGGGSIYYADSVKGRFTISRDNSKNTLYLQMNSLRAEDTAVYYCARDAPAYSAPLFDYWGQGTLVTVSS VL: QSVLTQPPSASGTPGQRVTISCSGSSSNIGNNAVNWYQQLPGTAPKLLIYYDKNRPSGVPDRFSGSKSGTSASLAISGLRSEDEADYYCAAWDRSLSGYVFGGGTKLTVL")
"8.08e-05 s⁻¹"

Field: next binder
[ask] Entry under review: P001009v1 (antibody, V domains shown, P001009 with LC S52K and S94R (Kabat); also called P019001v1; P0001009v1) VH: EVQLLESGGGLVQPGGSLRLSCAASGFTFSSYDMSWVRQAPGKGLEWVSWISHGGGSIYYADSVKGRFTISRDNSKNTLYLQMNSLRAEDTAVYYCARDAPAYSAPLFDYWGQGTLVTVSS VL: QSVLTQPPSASGTPGQRVTISCSGSSSNIGNNAVNWYQQLPGTAPKLLIYYDKNRPSGVPDRFSGSKSGTSASLAISGLRSEDEADYYCAAWDDRLSGYVFGGGTKLTVL . Reported koff?
[reply] 0.00138 s⁻¹
